Reference for the values: PubChem BioAssay (Tox21)

- test-system: Vitamin D3 receptor (Homo sapiens)
- method-summary: qHTS assay to identify small molecule antagonists of the vitamin D receptor (VDR) signaling pathway (AID 743223)
- condition: VDR-UAS-bla HEK293T, beta-lactamase FRET ratio, 16 h; series mostly up to 61 µM
Results filed as inconclusive are left out. Activity calls are given as the source filed them. The call rests on the fitted dose curve; in most records, active means well fitted inhibition curve with a large enough effect in the signal ratio in the repeat runs (not every such curve was filed as active); inconclusive means weak or mixed curves, or effect the other way; inactive means no such curve, though single readings can be large or run the other way; the % refers to the signal ratio.
parameter: activity change, negative = inhibition

Prompt: Would you kindly share the measured activity change, negative = inhibition for CN(C)CC/C=C1\c2ccccc2COc2ccccc21 ?
Response: inactive

Prompt: // repeat for C=CC(=O)OCCOC(=O)CCC(=O)O and report
Response: inactive

Prompt: // repeat for CC(C)(C)c1cc(CO)cc(C(C)(C)C)c1O and report
Response: inactive

Prompt: // repeat for CC(C)(C)C1CCCCC1O (configuration not stated) and report
Response: inactive

Prompt: // repeat for COc1ccc(OC)c(OC)c1 and report
Response: inactive

Prompt: // repeat for O=C(Cl)c1c(Cl)cccc1Cl and report
Response: inactive

Here are 6 molecules. What values of activity change, negative = inhibition were reported for them?
1. CN1CCC[C@@H]1c1cccnc1
2. O=C(O)Cn1c(C(=O)Nc2nc(-c3ccccc3Cl)cs2)cc2ccccc21
3. O=C(NS(=O)(=O)/C=C/c1cccs1)c1ccc(F)cc1Br
4. C=CC[N+]1([C@H]2C[C@H]3[C@@H]4CC[C@H]5C[C@H](OC(C)=O)[C@@H](N6CCCCC6)C[C@]5(C)[C@H]4CC[C@]3(C)[C@H]2OC(=O)CC)CCCCC1
5. O=C(O)C1CCC(C(=O)O)CC1 (configuration not stated)
6. O=C(O)Cc1sc(-c2ccccc2)nc1-c1ccc(Cl)cc1

Response:
1: inactive; 2: inactive; 3: inactive; 4: inactive; 5: inactive; 6: inactive
